# target_or_test_system: T1, full-length beta-Catenin (Uniprot ID P35222) (Homo sapiens (Human), UniProt P35222 1-781)
# T1 construct: also called bCat; B-Catenin
# T1 sequence: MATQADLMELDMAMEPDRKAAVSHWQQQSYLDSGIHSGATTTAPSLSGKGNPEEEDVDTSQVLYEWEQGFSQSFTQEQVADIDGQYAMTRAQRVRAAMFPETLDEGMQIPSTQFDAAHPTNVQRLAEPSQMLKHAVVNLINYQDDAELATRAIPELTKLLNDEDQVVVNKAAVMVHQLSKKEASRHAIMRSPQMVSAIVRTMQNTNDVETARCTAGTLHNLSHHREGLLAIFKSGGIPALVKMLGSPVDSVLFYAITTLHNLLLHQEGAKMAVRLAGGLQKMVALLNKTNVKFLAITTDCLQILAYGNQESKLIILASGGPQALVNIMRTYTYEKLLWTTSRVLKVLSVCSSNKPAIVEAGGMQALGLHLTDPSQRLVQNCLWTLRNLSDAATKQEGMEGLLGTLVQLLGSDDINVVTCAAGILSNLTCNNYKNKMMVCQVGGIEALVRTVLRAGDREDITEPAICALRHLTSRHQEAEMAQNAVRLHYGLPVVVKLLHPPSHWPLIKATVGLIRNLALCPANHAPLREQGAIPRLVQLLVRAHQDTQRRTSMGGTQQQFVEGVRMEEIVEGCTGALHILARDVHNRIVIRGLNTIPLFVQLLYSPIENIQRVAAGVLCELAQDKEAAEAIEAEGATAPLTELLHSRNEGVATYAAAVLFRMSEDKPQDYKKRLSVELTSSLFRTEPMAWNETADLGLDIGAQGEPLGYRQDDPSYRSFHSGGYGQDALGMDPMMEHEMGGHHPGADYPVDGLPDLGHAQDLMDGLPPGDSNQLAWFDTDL
# protocol_notes: competition fluorescence polarization; full-length beta-catenin, 5FAM-TCF4(10-53) probe as competitor
pIC50: −log10 of the molar value. Starred links: 1 amine or outer side, 2 acyl side, 3 side chain; linkers in the order of their positions; H or OH if unused. Positions of bridges follow the written chain, without caps; N, C: chain ends. Non-standard residues stand in square brackets, D forms with d. Primed or numbered codes have the meaning given here. B5(5) = 2,2-bis(4-pentenyl)glycine, 2-amino-2-(pent-4-en-1-yl)hept-6-enoic acid (stitching residue), C=CCCCC(CCCC=C)(N[*:1])C(=O)[*:2]; Bta = N[C@@H](Cc1csc2ccccc12)C(=O)O; αAllylPro = C=CC[C@@]1(C(=O)O)CCCN1; S8 = C=CCCCCCC[C@](C)(N)C(=O)O
This section presents binders with their documented pIC50 values.
measured_quantity: pIC50

XDVXDDAAFNXFXQ (not fully specified; N-terminal Ac; C-terminal NH2; non-natural PL3 (1), B5 (4), S8 (11), BztA (13); stapled PL3-B5 and B5-S8 by olefin metathesis, Stapled peptide composition; also called Ac-PL3-Asp-Val-B5-Asp-Asp-Ala-Ala-Phe-Asn-S8-Phe-BztA-Gln-NH2) [I-566]
7.12
XDLXDDAAFNXFXQ (not fully specified; N-terminal Ac; C-terminal NH2; non-natural PL3 (1), B5 (4), S8 (11), BztA (13); stapled PL3-B5 and B5-S8 by olefin metathesis, Stapled peptide composition; also called Ac-PL3-Asp-Leu-B5-Asp-Asp-Ala-Ala-Phe-Asn-S8-Phe-BztA-Gln-NH2) [I-563]
7.72
Ac-[αAllylPro]DL[B5(5)]DDAAFN[S8]F[Bta]H-NH2 (staple 1-4, 4-11, Stapled peptide composition; also called Ac-PL3-Asp-Leu-B5-Asp-Asp-Ala-Ala-Phe-Asn-S8-Phe-BztA-His-NH2) [I-564]
7.44
XDVXDDAAFNXFXQ (not fully specified; N-terminal Ac; C-terminal NH2; non-natural PL3 (1), B5 (4), S8 (11), BztA (13); stapled PL3-B5 and B5-S8 by olefin metathesis, Stapled peptide composition; also called Ac-PL3-Asp-Val-B5-Asp-Asp-Ala-Ala-Phe-Asn-S8-Phe-BztA-Gln-NH2) [I-567]
7.43
